Molecular target: T1, O5-bN
T1 chain: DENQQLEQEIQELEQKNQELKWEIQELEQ
Experiment: two-hybrid library CCNG1;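 note: natural log of median RNA to DNA barcode read ratio; higher means stronger binding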
The recorded interaction score of each item maps onto one of these classes: low interval: < -2; middle interval: ≥ -2 and < -0.6; high interval: ≥ -0.6

Query string: Classify this binder: DKNQQLKQENQELEQKIQELKWKIQELKQ [O10-bN]
Result string: high interval

Query string: Which interaction score band matches DKIQQLKQEIQELEQENQELEWENQELEQ [O11-bN] ?
Result string: middle interval

Query string: Band assignment needed for DKIQQLKQEIQELEQKNQELKWKNQELKQ [O4-bN] please.
Result string: high interval

Query string: Place this binder in its band: DENQQLEQKNQELKQKIQELKWKIQELKQ [O2-bN]
Result string: middle interval

Query string: Looking at DKNQQLKQENQELEQEIQELEWEIQELEQ [O1-bN] , which class would you pick?
Result string: middle interval

Query string: Entry DEIQQLEQKIQELKQENQELEWENQELEQ [O3-bN] belongs to which category?
Result string: middle interval

Query string: Hi there! Could you help me figure out the category for DKIQQLKQKNQELKQEIQELEWKNQELKQ [O16-bN] please?
Result string: low interval

Query string: Field: class (interaction score) — entry: DEIQQLEQENQELEQKIQELKWENQELEQ [O15-bN]
Result string: middle interval

Query string: Hello team, could you let me know which band the following binder falls into: DKNQQLKQKIQELKQKNQELKWEIQELEQ [O13-bN]
Result string: low interval

Query string: Which of the defined bands does the recorded interaction score of DENQQLEQEIQELEQENQELEWKIQELKQ [O14-bN] sit within?
Result string: high interval

Query string: Assign a bin to DEIQQLEQKIQELKQKNQELKWKNQELKQ [O12-bN]
Result string: low interval
